# system: JAK2 (Homo sapiens, UniProt O60674)
# Construct: purchased Invitrogen
# Sequence (O60674 whole entry): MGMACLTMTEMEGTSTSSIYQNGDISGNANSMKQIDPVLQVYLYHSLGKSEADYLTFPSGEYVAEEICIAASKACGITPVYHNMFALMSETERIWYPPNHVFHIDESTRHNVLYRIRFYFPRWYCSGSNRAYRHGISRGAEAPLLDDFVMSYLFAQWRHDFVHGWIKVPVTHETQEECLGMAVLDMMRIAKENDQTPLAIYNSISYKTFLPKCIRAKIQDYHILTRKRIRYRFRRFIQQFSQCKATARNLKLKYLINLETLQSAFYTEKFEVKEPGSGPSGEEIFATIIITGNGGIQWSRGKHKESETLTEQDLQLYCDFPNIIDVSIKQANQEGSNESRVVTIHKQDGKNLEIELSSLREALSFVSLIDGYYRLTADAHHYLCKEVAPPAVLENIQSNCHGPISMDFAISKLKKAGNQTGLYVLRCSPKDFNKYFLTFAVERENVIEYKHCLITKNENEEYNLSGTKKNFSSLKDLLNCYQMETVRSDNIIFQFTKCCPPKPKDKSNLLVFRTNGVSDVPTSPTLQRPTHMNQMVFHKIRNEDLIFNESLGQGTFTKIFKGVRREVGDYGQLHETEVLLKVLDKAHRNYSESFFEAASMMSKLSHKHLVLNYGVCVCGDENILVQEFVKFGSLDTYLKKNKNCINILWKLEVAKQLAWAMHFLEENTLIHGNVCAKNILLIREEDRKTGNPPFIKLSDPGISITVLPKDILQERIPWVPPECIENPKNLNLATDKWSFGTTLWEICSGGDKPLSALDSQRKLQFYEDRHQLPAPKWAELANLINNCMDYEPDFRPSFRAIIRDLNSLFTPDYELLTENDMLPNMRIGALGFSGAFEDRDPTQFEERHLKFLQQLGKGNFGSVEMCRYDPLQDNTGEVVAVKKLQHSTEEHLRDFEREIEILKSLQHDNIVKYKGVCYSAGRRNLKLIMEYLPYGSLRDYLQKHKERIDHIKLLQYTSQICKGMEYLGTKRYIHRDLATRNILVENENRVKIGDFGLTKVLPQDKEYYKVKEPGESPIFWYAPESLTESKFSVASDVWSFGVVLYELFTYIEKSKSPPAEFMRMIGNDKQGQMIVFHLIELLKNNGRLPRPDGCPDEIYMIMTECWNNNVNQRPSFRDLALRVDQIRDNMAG
# test: JAK2 enzyme inhibition test (LANCE method)
# Type: biochemical
# conditions-used: 1 μM test compound; read-out: JAK2 enzyme inhibitory activity (%, 1 μM)
test-readout: inhibition at 1 µM (%)

# compound, readout-unit, test-value
measured = [
    ("CC(C1CC1)n1cc(-c2cc(N3CCOCC3)n(C)n2)c2[nH]nc(N)c2c1=O (racemic) [Example 4]", "%", 99),
    ("Cn1nc(-c2cn(-c3c(F)cccc3F)c(=O)c3c(N)n[nH]c23)cc1C(=O)N1CCOCC1 [Example 66]", "%", 99),
    ("CC1CCCCC1n1cc(-c2cc(N3CCOCC3)n(C)n2)c2[nH]nc(N)c2c1=O (centres unmarked) [Example 152]", "%", 101),
    ("Cn1nc(-c2cn(C(C3CC3)C3CC3)c(=O)c3c(N)n[nH]c23)cc1N1CCC(F)(F)C1 [Example 170]", "%", 99),
    ("CC(C)[C@H](C)n1cc(-c2cc(CN3CCCC3)n(C)n2)c2[nH]nc(N)c2c1=O [Example 44]", "%", 96),
    ("COC1(c2cc(-c3cn(-c4c(F)cccc4F)c(=O)c4c(N)n[nH]c34)nn2C)CN(C(C)=O)C1 [Example 131]", "%", 98),
    ("Cn1nc(-c2cn(C(C3CC3)C3CC3)c(=O)c3c(N)n[nH]c23)cc1N1CCN2CCC[C@H]2C1 [Example 162]", "%", 100),
    ("CC(C)N1CCN(c2cc(-c3cn([C@@H](C)C4CC4)c(=O)c4c(N)n[nH]c34)nn2C)CC1=O [Example 92]", "%", 100),
]

---

# system: JAK3 (Homo sapiens)
# Construct: purchased Invitrogen
# Sequence (P52333 whole entry): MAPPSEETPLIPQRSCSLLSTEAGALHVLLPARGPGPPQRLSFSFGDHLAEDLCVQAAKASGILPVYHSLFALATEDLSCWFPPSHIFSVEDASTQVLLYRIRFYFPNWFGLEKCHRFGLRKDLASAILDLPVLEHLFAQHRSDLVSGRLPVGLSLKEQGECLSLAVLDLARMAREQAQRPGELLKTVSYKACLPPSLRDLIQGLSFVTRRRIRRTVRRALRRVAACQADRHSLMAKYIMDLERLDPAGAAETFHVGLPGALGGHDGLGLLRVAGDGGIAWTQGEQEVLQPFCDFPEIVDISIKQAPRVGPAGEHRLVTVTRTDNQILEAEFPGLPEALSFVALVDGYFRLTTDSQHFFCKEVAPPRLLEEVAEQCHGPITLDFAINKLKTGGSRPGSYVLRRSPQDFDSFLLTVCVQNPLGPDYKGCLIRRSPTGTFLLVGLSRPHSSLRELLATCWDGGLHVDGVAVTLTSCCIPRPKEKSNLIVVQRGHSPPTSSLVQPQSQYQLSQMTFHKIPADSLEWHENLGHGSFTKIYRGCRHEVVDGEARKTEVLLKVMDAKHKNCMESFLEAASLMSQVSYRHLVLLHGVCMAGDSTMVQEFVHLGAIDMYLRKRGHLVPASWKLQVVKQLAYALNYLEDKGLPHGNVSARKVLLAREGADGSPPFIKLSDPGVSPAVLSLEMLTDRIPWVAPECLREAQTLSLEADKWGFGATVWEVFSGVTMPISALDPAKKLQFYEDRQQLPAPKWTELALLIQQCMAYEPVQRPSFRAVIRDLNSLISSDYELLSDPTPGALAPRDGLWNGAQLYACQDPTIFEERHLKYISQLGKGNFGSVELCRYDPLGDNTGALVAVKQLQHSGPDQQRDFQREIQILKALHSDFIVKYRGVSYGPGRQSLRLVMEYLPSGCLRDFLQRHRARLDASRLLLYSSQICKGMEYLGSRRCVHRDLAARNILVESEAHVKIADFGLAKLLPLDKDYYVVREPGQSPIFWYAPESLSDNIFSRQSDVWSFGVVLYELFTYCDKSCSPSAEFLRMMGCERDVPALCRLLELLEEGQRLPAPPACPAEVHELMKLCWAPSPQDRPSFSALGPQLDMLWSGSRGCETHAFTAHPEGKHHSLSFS
# test: JAK3 enzyme inhibition test (LANCE method)
# Format: biochemical
# conditions-used: 1 μM test compound; read-out: JAK3 enzyme inhibitory activity (%, 1 μM)
test-readout: inhibition at 1 µM (%)

# compound, inhibition at 1 µM (%)
records = [
    ("Cn1nc(-c2cn(C3CCCC3(C)C)c(=O)c3c(N)n[nH]c23)cc1N1CCOCC1 (stereo not shown) [Example 76]", 100),
    ("CN(C)[C@@H]1CCN(c2cc(-c3cn(C(C4CC4)C4CC4)c(=O)c4c(N)n[nH]c34)nn2C)C1", 100),
    ("CC(=O)N(C)C[C@H]1CCCN1c1cc(-c2cn(C(C3CC3)C3CC3)c(=O)c3c(N)n[nH]c23)nn1C", 98),
    ("CC(C)[C@H](C)n1cc(-c2cc(N3CCOC(C)(C)C3)n(C)n2)c2[nH]nc(N)c2c1=O", 99),
    ("CC(C)[C@H](C)n1cc(-c2cc(C3(O)CCC(F)(F)CC3)n(C)n2)c2[nH]nc(N)c2c1=O", 100),
    ("C[C@@H](C1CC1)n1cc(-c2cc(N3CCC(O)(C(F)(F)F)CC3)n(C)n2)c2[nH]nc(N)c2c1=O", 100),
    ("COC[C@H]1CCCN1c1cc(-c2cn(-c3c(F)cccc3F)c(=O)c3c(N)n[nH]c23)nn1C", 99),
    ("CC(C)[C@H](C)n1cc(-c2cc(C(F)(F)F)n(C)n2)c2[nH]nc(N)c2c1=O", 99),
    ("CN(C)[C@H]1CCN(c2cc(-c3cn(-c4c(F)cccc4F)c(=O)c4c(N)n[nH]c34)nn2C)C1", 100),
    ("CC(C)[C@H](C)n1cc(-c2cc(N3CCN4CCCC4C3)n(C)n2)c2[nH]nc(N)c2c1=O (stereo partly shown)", 99),
    ("Cn1nc(-c2cn(C(C3CC3)C3CC3)c(=O)c3c(N)n[nH]c23)cc1N1CCN2CCC[C@H]2C1", 100),
    ("CC(C)[C@H](C)n1cc(-c2cc(CN3CCS(=O)(=O)CC3)n(C)n2)c2[nH]nc(N)c2c1=O", 100),
    ("COC1CCN(c2cc(-c3cn([C@@H](C)C(C)C)c(=O)c4c(N)n[nH]c34)nn2C)CC1", 99),
]

---

# system: JAK2 (Homo sapiens, UniProt O60674)
# Construct: purchased Invitrogen
# test: JAK2 enzyme inhibition test (LANCE method)
# Assay type: biochemical
# conditions-used: 1 μM test compound; read-out: JAK2 enzyme inhibitory activity (%, 1 μM)
test-readout: inhibition at 1 µM (%)

# molecule, system, inhibition at 1 µM [%]
records = [
    ("CC(C)[C@H](C)n1cc(-c2cc(C(F)(F)F)n(C)n2)c2[nH]nc(N)c2c1=O", "JAK2 (Homo sapiens, UniProt O60674)", 96),
    ("COC1(c2cc(-c3cn(-c4c(F)cccc4F)c(=O)c4c(N)n[nH]c34)nn2C)CN(C(=O)C(C)C)C1", "JAK2 (Homo sapiens, UniProt O60674)", 98),
    ("CC(C)[C@H](C)n1cc(-c2cc(N3CCC(C)(O)C3)n(C)n2)c2[nH]nc(N)c2c1=O (stereo partly shown)", "JAK2 (Homo sapiens, UniProt O60674)", 98),
    ("CC(C)[C@H](C)n1cc(-c2cc(C3(O)CCC3)n(C)n2)c2[nH]nc(N)c2c1=O", "JAK2 (Homo sapiens, UniProt O60674)", 99),
    ("Cn1nc(-c2cn(C(C3CC3)C3CC3)c(=O)c3c(N)n[nH]c23)cc1N1CCS(=O)(=O)C(C)(C)C1", "JAK2 (Homo sapiens, UniProt O60674)", 100),
    ("COC[C@H]1CCCN1c1cc(-c2cn(C(C3CC3)C3CC3)c(=O)c3c(N)n[nH]c23)nn1C", "JAK2 (Homo sapiens, UniProt O60674)", 99),
    ("CC(C)C(n1cc(-c2cc(N3CCOCC3)n(C)n2)c2[nH]nc(N)c2c1=O)C(F)(F)F (stereo not shown)", "JAK2 (Homo sapiens, UniProt O60674)", 87),
    ("Cn1nc(-c2cn(C(C3CC3)C3CC3)c(=O)c3c(N)n[nH]c23)cc1N1CCOCC1", "JAK2 (Homo sapiens, UniProt O60674)", 99),
    ("CC(C)[C@H](C)n1cc(-c2cc(N3CCN(S(=O)(=O)C4CC4)CC3)n(C)n2)c2[nH]nc(N)c2c1=O", "JAK2 (Homo sapiens, UniProt O60674)", 98),
    ("C[C@@H](C1CC1)n1cc(-c2cc(C(C)(C)O)n(C)n2)c2[nH]nc(N)c2c1=O", "JAK2 (Homo sapiens, UniProt O60674)", 100),
]
